test system: MDA-MB-231 (Breast) cell line; assay: MTT cytotoxicity assay, MDA-MB-231; format: cell-based; conditions: Homo sapiens, growth inhibition by 50% after 48 hr treatment
READOUT TYPE: pIC50
// field semantics: pIC50 = negative decimal log of concentration (mol/L)

The cases that follow already have their pIC50 on record.
[[record]]
compound = "CCCCCCCCCCCCCCCC(=O)N1NC(=O)CCC1=O"
observed_result = 4.59

[[record]]
compound = "CCCCCCCCCCCCCCCCCc1n[nH]c(=O)o1"
observed_result = 4.81

[[record]]
compound = "C=CCCCCCCCCc1n[nH]c(=O)o1"
observed_result = 4.91

[[record]]
compound = "O=c1[nH]cc(F)c(=O)[nH]1 [5-Fluorouracil, reference compound]"
observed_result = 5.62


Now consider the entry below.
*Q* State its pIC50 for this compound: `CCCCCCCC/C=C\CCCCCCCc1n[nH]c(=O)o1`
*A* 5.03

---

Form field: pIC50 (one value per entry).
tested on: MDA-MB-231 (Breast) cell line; test: MTT cytotoxicity assay, MDA-MB-231; format: cell-based; settings: Homo sapiens, growth inhibition by 50% after 48 hr treatment
# reply with the number alone; pIC50 is -log10 of concentration in mol/L

Sample records with pIC50:
[[record]]
molecule = "CCCCCC[C@@H](O)C/C=C\\CCCCCCCc1n[nH]c(=O)o1 [3c]"
observed_result = 5.20

[[record]]
molecule = "COc1cccc2c1C(=O)c1c(O)c3c(c(O)c1C2=O)C[C@@](O)(C(=O)CO)C[C@@H]3O[C@H]1C[C@H](N)[C@H](O)[C@H](C)O1 [Doxorubicin, reference compound]"
observed_result = 5.80


*Q* Answer with the recorded pIC50 of CCCCCCCC/C=C\CCCCCCCC(=O)N1NC(=O)CCC1=O [6b] only.
*A* 4.95

*Q* Could you please provide reported pIC50 for C=CCCCCCCCCC(=O)N1NC(=O)CCC1=O [6a] ? Thanks!
*A* 4.72

---

tested on: HeLa (cervical) cell line; assay: MTT cytotoxicity assay, HeLa; assay type: cell-based; conditions: Homo sapiens, growth inhibition by 50% after 48 hr treatment
READOUT TYPE: IC50 (µM)
Give your result in µM as a bare value.

Sample answers from the record:
[[record]]
compound = "CCCCCCCCCCCCCCCC(=O)N1NC(=O)CCC1=O"
subject_of_test = "HeLa (cervical) cell line"
units_label = "µM"
observed_result = 21.2

[[record]]
compound = "C=CCCCCCCCCc1n[nH]c(=O)o1"
subject_of_test = "HeLa (cervical) cell line"
units_label = "µM"
observed_result = 17.1

[[record]]
compound = "CCCCCC[C@@H](O)C/C=C\\CCCCCCCc1n[nH]c(=O)o1"
subject_of_test = "HeLa (cervical) cell line"
units_label = "µM"
observed_result = 9.6

[[record]]
compound = "CCCCCCCC/C=C\\CCCCCCCC(=O)N1NC(=O)CCC1=O"
subject_of_test = "HeLa (cervical) cell line"
units_label = "µM"
observed_result = 13.4

[[record]]
compound = "CCCCCCCC/C=C\\CCCCCCCc1n[nH]c(=O)o1"
subject_of_test = "HeLa (cervical) cell line"
units_label = "µM"
observed_result = 12.3


*Q* Indicate its recorded IC50; the compound in question is `CCCCCCCCCCCCCCCCCc1n[nH]c(=O)o1`
*A* 26.2

*Q* Identify IC50 associated with the compound COc1cccc2c1C(=O)c1c(O)c3c(c(O)c1C2=O)C[C@@](O)(C(=O)CO)C[C@@H]3O[C@H]1C[C@H](N)[C@H](O)[C@H](C)O1 [Doxorubicin, reference compound]
*A* 1.9

*Q* Give a short answer stating reported IC50 for O=c1[nH]cc(F)c(=O)[nH]1 [5-Fluorouracil, reference compound] .
*A* 2.18

*Q* Supply reported IC50 belonging to this compound: `C=CCCCCCCCCC(=O)N1NC(=O)CCC1=O`
*A* 19.3
